assay: Metal chelating activity assessed as inhibition of Cu2+ induced amyloid beta (1 to 42) aggregation at 25 uM after 24 hrs by ThT-based fluorometric method relative to control
propertyLabel: inhibition (%)
Expressed in %, but write only the number.

# annotated cases, reported inhibition shown
In [3]: df
Out[3]:
                             smilesnotation  unitstext  valuemeasured
0  COc1ccccc1CN(C)CCCCNC(=O)COc1ccc(-c2cc(=O)c3c(O)c(OC)c(OC)cc3o2)cc1          %           42.6
1  CCN(CCCCNC(=O)COc1ccc(-c2cc(=O)c3c(O)c(OC)c(OC)cc3o2)cc1)Cc1ccccc1OC          %           43.4
2  COc1ccccc1CN(C)CCCNC(=O)COc1ccc(-c2cc(=O)c3c(O)c(OC)c(OC)cc3o2)cc1          %           44.9

Ask | inhibition lookup needed for CCN(CCCNC(=O)COc1ccc(-c2cc(=O)c3c(O)c(OC)c(OC)cc3o2)cc1)Cc1ccccc1OC , thanks.
Reply | 45.1

Ask | Report inhibition for CCN(CCNC(=O)COc1ccc(-c2cc(=O)c3c(O)c(OC)c(OC)cc3o2)cc1)Cc1ccccc1OC please.
Reply | 47.5

Ask | Which measured inhibition value corresponds to COc1cc(/C=C/C(=O)CC(=O)/C=C/c2ccc(O)c(OC)c2)ccc1O ?
Reply | 58

Ask | For the compound CCN(CCCCCCNC(=O)COc1ccc(-c2cc(=O)c3c(O)c(OC)c(OC)cc3o2)cc1)Cc1ccccc1OC , what inhibition is on record?
Reply | 42.7

Ask | Quick check: inhibition of COc1ccccc1CN(C)CCCCCCNC(=O)COc1ccc(-c2cc(=O)c3c(O)c(OC)c(OC)cc3o2)cc1 ?
Reply | 41.5

Ask | If you can, please state the reported inhibition value of COc1ccccc1CN(C)CCNC(=O)COc1ccc(-c2cc(=O)c3c(O)c(OC)c(OC)cc3o2)cc1 .
Reply | 49.3

---

experiment: Antioxidant activity assessed as trolox equivalents of AAPH radical scavenging activity at 1 to 10 uM preincubated for 15 mins followed by AAPH addition measured every 60 sec for 90 mins by ORAC-FL assay; type: functional
propertyLabel: Activity (equiv)
Answer format: numeric, equiv implied, no suffix.

>>> df
                             smilesnotation  propertylabel  valuemeasured
0  CCN(CCNC(=O)COc1ccc(-c2cc(=O)c3c(O)c(OC)c(OC)cc3o2)cc1)Cc1ccccc1OC       Activity           1.04
1  COc1ccccc1CN(C)CCCCNC(=O)COc1ccc(-c2cc(=O)c3c(OC)c(OC)c(OC)cc3o2)cc1       Activity           0.37
2  COc1cc2oc(-c3ccc(OCC(=O)NCCCCN(C)Cc4ccccc4)cc3)cc(=O)c2c(OC)c1OC       Activity           0.35
3  COc1ccccc1CN(C)CCCNC(=O)COc1ccc(-c2cc(=O)c3c(OC)c(OC)c(OC)cc3o2)cc1       Activity            0.4

Turning now to a further record.
Ask | Consider the compound COc1ccccc1CN(C)CCCCCCNC(=O)COc1ccc(-c2cc(=O)c3c(O)c(OC)c(OC)cc3o2)cc1 and give its measured Activity.
Reply | 1.01

---

molecular target: Acetylcholinesterase (Rattus norvegicus, UniProt P37136); assay: Inhibition of rat cortex homogenate AChE using acetylthiocholine iodide as substrate after 15 mins in presence of BuChE inhibitor iso-OMPA by Ellman's method
Sequence (P37136 whole entry): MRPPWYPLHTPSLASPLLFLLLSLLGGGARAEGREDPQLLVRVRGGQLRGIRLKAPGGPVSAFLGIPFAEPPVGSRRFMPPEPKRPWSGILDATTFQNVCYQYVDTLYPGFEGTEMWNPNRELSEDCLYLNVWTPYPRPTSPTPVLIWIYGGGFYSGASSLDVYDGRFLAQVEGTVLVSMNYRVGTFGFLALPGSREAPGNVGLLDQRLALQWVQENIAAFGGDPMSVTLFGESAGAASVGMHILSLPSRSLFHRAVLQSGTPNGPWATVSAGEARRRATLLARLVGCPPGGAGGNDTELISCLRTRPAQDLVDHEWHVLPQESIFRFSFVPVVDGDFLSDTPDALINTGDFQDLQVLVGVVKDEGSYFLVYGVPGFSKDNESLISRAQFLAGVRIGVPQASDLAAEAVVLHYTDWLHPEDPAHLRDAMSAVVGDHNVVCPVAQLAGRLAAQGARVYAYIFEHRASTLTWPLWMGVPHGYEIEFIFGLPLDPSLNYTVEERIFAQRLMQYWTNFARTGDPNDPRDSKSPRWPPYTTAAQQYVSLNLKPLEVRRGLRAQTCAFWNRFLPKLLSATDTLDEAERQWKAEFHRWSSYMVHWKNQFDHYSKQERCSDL
Entries and their pIC50 values follow.
// pIC50 here means minus log10 of the molar concentration (mol/L)

// below: answered molecules
>>> df
                             smilesnotation                               studysystem  valuemeasured
0  COc1ccccc1CN(C)CCCCCCNC(=O)COc1ccc(-c2cc(=O)c3c(OC)c(OC)c(OC)cc3o2)cc1  Acetylcholinesterase (Rattus norvegicus, UniProt P37136)           5.26
1  COc1ccccc1CN(C)CCCCNC(=O)COc1ccc(-c2cc(=O)c3c(O)c(OC)c(OC)cc3o2)cc1  Acetylcholinesterase (Rattus norvegicus, UniProt P37136)           5.64
2  CCN(CCCCCCNC(=O)COc1ccc(-c2cc(=O)c3c(OC)c(OC)c(OC)cc3o2)cc1)Cc1ccccc1  Acetylcholinesterase (Rattus norvegicus, UniProt P37136)           5.55
3  CCN(CCCNC(=O)COc1ccc(-c2cc(=O)c3c(OC)c(OC)c(OC)cc3o2)cc1)Cc1ccccc1OC  Acetylcholinesterase (Rattus norvegicus, UniProt P37136)           6.62
4  COc1ccccc1CN(C)CCCCCCNC(=O)COc1ccc(-c2cc(=O)c3c(O)c(OC)c(OC)cc3o2)cc1  Acetylcholinesterase (Rattus norvegicus, UniProt P37136)           5.18
5  CCN(CCCCCCNC(=O)COc1ccc(-c2cc(=O)c3c(OC)c(OC)c(OC)cc3o2)cc1)Cc1ccccc1OC  Acetylcholinesterase (Rattus norvegicus, UniProt P37136)           6.46
6  COc1cc2oc(-c3ccc(OCC(=O)NCCCCCCN(C)Cc4ccccc4)cc3)cc(=O)c2c(OC)c1OC  Acetylcholinesterase (Rattus norvegicus, UniProt P37136)           5.33
7  COc1ccccc1CN(C)CCNC(=O)COc1ccc(-c2cc(=O)c3c(O)c(OC)c(OC)cc3o2)cc1  Acetylcholinesterase (Rattus norvegicus, UniProt P37136)           5.71

Please turn your attention to the following entry.
Ask | Which value of pIC50 has been reported for COc1cc2oc(-c3ccc(OCC(=O)NCCN(C)Cc4ccccc4)cc3)cc(=O)c2c(OC)c1OC in the records?
Reply | 4.80

---

experiment: Metal chelating activity assessed as disaggregation of Cu2+ induced amyloid beta (1 to 42) fibrils at 25 uM treated for 24 hrs post Cu2+ treatment for 24 hrs by ThT-based fluorometric method relative to control
criterion met if Activity is below 60%. criterion not met if not; exact matches included in criterion not met.

Reference set, count: 4
>>> df
                             smilesnotation              label
0  CCN(CCCCCCNC(=O)COc1ccc(-c2cc(=O)c3c(O)c(OC)c(OC)cc3o2)cc1)Cc1ccccc1OC  criterion not met
1  COc1cc(/C=C/C(=O)CC(=O)/C=C/c2ccc(O)c(OC)c2)ccc1O      criterion met
2  CCN(CCCCNC(=O)COc1ccc(-c2cc(=O)c3c(O)c(OC)c(OC)cc3o2)cc1)Cc1ccccc1OC  criterion not met
3  COc1ccccc1CN(C)CCCNC(=O)COc1ccc(-c2cc(=O)c3c(O)c(OC)c(OC)cc3o2)cc1      criterion met

Ask | Is Activity strictly under 60% for the entry COc1ccccc1CN(C)CCNC(=O)COc1ccc(-c2cc(=O)c3c(O)c(OC)c(OC)cc3o2)cc1 ?
Reply | criterion met

Ask | State whether 60% exceeds Activity recorded for CCN(CCCNC(=O)COc1ccc(-c2cc(=O)c3c(O)c(OC)c(OC)cc3o2)cc1)Cc1ccccc1OC .
Reply | criterion met

Ask | Record COc1ccccc1CN(C)CCCCNC(=O)COc1ccc(-c2cc(=O)c3c(O)c(OC)c(OC)cc3o2)cc1 : is its Activity strictly below 60%?
Reply | criterion not met

---

The reader will find reported pIC50 values listed item by item below.
experiment: Inhibition of rat serum BuChE using butyrylthiocholine iodide as substrate after 15 mins by Ellman's method; assay type: ADME
pIC50: −log10 of the molar value.

For orientation, consider the following solved cases.
>>> df
                                   compound  propertylabel  valuemeasured
0  CCN(CCNC(=O)COc1ccc(-c2cc(=O)c3c(O)c(OC)c(OC)cc3o2)cc1)Cc1ccccc1OC          pIC50           4.13
1  COc1ccccc1CN(C)CCCNC(=O)COc1ccc(-c2cc(=O)c3c(O)c(OC)c(OC)cc3o2)cc1          pIC50         < 3.30
2  COc1ccccc1CN(C)CCCCNC(=O)COc1ccc(-c2cc(=O)c3c(OC)c(OC)c(OC)cc3o2)cc1          pIC50         < 3.30
3  COc1cc2oc(-c3ccc(O)cc3)cc(=O)c2c(O)c1OC [CIRSIMARITIN]          pIC50         < 3.30
4  CCN(CCCNC(=O)COc1ccc(-c2cc(=O)c3c(O)c(OC)c(OC)cc3o2)cc1)Cc1ccccc1OC          pIC50         < 3.30
5  COc1ccccc1CN(C)CCCCNC(=O)COc1ccc(-c2cc(=O)c3c(O)c(OC)c(OC)cc3o2)cc1          pIC50           3.75
6  CCN(CCNC(=O)COc1ccc(-c2cc(=O)c3c(OC)c(OC)c(OC)cc3o2)cc1)Cc1ccccc1          pIC50         < 3.30

Now examine the next entry.
Ask | What does the data say about its pIC50? Entry: COc1ccccc1CN(C)CCNC(=O)COc1ccc(-c2cc(=O)c3c(OC)c(OC)c(OC)cc3o2)cc1
Reply | 3.96
